Target: MAP kinase-interacting serine/threonine-protein kinase 1 (Homo sapiens);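 further: each value is an averaged percent inhibition of MKNK1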
Details: at 1 µM
Note: every record was labeled by where its inhibition sits among bottom bin = under 3%, middle bin = from 3% up to 6%, top bin = 6% and over

Worked set:
{"columns": ["compound", "system_tested", "label"],
 "data": [
  ["Fc1ccc(-c2ncn(C3CCNCC3)c2-c2ccnc(Oc3ccc4c(c3)OCO4)n2)cc1", "MAP kinase-interacting serine/threonine-protein kinase 1 (Homo sapiens)", "top bin"],
  ["Cc1nnc(-c2ccc(C)c(-c3ccc(C(=O)NCc4ccc(Cl)cc4)cc3)c2)o1", "MAP kinase-interacting serine/threonine-protein kinase 1 (Homo sapiens)", "top bin"],
  ["Nc1nccc(-c2c(-c3ccc(F)cc3)ncn2C2CCC(O)CC2)n1 (stereo unspecified)", "MAP kinase-interacting serine/threonine-protein kinase 1 (Homo sapiens)", "bottom bin"],
  ["O=C1NC(=O)C(c2cccc(Cl)c2)=C1Nc1ccc(Cl)c(C(=O)O)c1", "MAP kinase-interacting serine/threonine-protein kinase 1 (Homo sapiens)", "middle bin"],
  ["CCc1nccc2c1nc(-c1nonc1N)n2CC", "MAP kinase-interacting serine/threonine-protein kinase 1 (Homo sapiens)", "bottom bin"],
  ["CN(c1ccc(NC(=O)Nc2c(Cl)cccc2Cl)cc1)c1ccnc(Nc2cccc(CS(C)(=O)=O)c2)n1", "MAP kinase-interacting serine/threonine-protein kinase 1 (Homo sapiens)", "top bin"],
  ["O=C(Nc1n[nH]c2cc(-c3cc(F)ccc3F)ccc12)C1CC1", "MAP kinase-interacting serine/threonine-protein kinase 1 (Homo sapiens)", "top bin"],
  ["NC(=O)c1cc(-c2ccc(F)cc2)cc(-c2ccncc2)c1N", "MAP kinase-interacting serine/threonine-protein kinase 1 (Homo sapiens)", "top bin"]
]}

Exam item: Hey, which category is `Fc1ccc(-c2c(-c3ccncc3)nc3n2CCS3)cc1` in, do you know?
Marked response: top bin

Exam item: Hey, which category is `COc1ccc2ncn(-c3cc(O[C@H](C)c4ccccc4Cl)c(C(N)=O)s3)c2c1` in, do you know?
Marked response: bottom bin

Exam item: Hey, which category is `CCc1ccc(Oc2nccc(-c3c(-c4ccc(F)cc4)ncn3C3CCNCC3)n2)cc1` in, do you know?
Marked response: middle bin

Exam item: Hey, which category is `NC(=O)Cc1ccccc1Oc1nccc(-c2c(-c3ccc(F)cc3)ncn2C2CCNCC2)n1` in, do you know?
Marked response: bottom bin

Exam item: Hey, which category is `CN(C)CCOc1ccc(-c2cc(-c3ccc4c(c3)CCC4=NO)c(-c3ccncc3)o2)cc1` in, do you know?
Marked response: middle bin
